Reported DC MFI values for the following binders.
- systemUnderTest: T1, human CD33 (human, UniProt P20138 18-364)
- T1 construct: CD33 on human primary dendritic cells, macrophages, monocytes and T cells and on CHO cells expressing recombinant human CD33; also called Siglec-3; hCD33
- T1 sequence (P20138 18-364): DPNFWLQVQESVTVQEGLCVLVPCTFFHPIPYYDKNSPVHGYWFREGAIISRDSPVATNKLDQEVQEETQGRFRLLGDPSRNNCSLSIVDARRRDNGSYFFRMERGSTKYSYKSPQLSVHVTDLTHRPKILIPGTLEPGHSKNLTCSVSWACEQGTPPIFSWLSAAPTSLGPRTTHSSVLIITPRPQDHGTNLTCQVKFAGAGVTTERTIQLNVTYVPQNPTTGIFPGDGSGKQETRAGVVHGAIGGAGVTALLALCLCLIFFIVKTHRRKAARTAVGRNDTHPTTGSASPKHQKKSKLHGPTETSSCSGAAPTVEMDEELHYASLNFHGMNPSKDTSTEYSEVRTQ
- protocolNotes: flow cytometry, human primary dendritic cells;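 note: binding of anti-CD33 antibodies (10 ug/ml, 1 h on ice) to human primary dendritic cells, detected with a PE-labelled secondary antibody, reported as flow cytometry MFI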

Examples with answers:
GET /value?item= C-66 (antibody, V domains shown, human IgG1) VH: QLQLQESGPGLVKPSETLSLTCTVSGGSISSSSYYWGWIRQPPGKGLEWIGSIYYSGSTYYNPSLKSRVTISVDTSKNQFSLKLSSVTAADTAVYYCAREVGYPYGMDVWGQGTTVTVSS VL: DIQLTQSPSSLSASVGDRVTITCQASQDISNFLNWYQQKPGKAPKLLIYDASNLETGVPSRFSGSGSGTDFTFTISSLQPEDIATYYCQQYSDLPTFGGGTKVEIK &field=DC MFI returns 892

GET /value?item= C-26 (antibody, V domains shown, human IgG1) VH: QLQLQESGPGLVKPSETLSLTCTVSGGSISSNSYYWGWIRQPPGKGLEWIGSIYYSGSTYYNPSLKSRVTISVDTSKNQFSLKLSSVTAADTAVYYCARSPVYYDSSGYFQYYGMDVWGQGTTVTVSS VL: EIVLTQSPATLSLSPGERATLSCRASQSVSSYLAWYQQKPGQAPRLLIYDASKRATGIPARFSGSGSGTDFTLTISSLEPEDFAVYYCQQSIVWPPFTFGGGTKVEIK &field=DC MFI returns 1960

Next item in the queue.
GET /value?item= C-73 (antibody, V domains shown, human IgG1) VH: QVQLVESGGGVVQPGRSLRLSCAASGFTFSSYGMHWVRQAPGKGLEWVAVIWYDGSNKYYADSVKGRFTISRDNSKNTLYLQMNSLRAEDTAVYYCARGTNAYGTPRDFDLWGRGTLVTVSS VL: DIQMTQSPSSLSASVGDRVTITCRASQSISSYLNWYQQKPGKAPKLLIYAASSLQSGVPSRFSGSGSGTDFTLTISSLQPEDFATYYCQQLSDTPITFGGGTKVEIK &field=DC MFI returns 1050
